Value source: patent US20050239656A1

# Test system: green foxtail
# test-summary: Test Example 2: soil surface treatment, upland pot test
# Type: in vivo, Setaria viridis L.
# conditions: active ingredient 250 g/ha, observed 20th to 28th day
measured-attribute: Growth controlling degree (%) Green foxtail
Your answer should be a plain number; it is taken to be in %.

For the compound shown here, CC(C)C(c1cnccc1C(F)(F)F)N(C)C(=O)Cc1ccc(F)cc1 (stereo not drawn) , give the reported Growth controlling degree (%) Green foxtail. 90

Also CC(C)C(c1cnccc1C(F)(F)F)N(C)C(=O)Cc1ccccc1Cl (stereo not drawn) ? 80

Also Cc1ccc(S(=O)(=O)N(C)C(c2cnccc2C(F)(F)F)C(C)C)cc1 (racemic) ? 95

Also CC(=O)N(C)C(c1cnccc1C(F)(F)F)C(C)C (stereo not drawn) ? 100

Also CC(C)CC(=O)N(C)C(c1cnccc1C(F)(F)F)C(C)C (stereo not drawn) ? 100

Also CC(C)C(c1cnccc1C(F)(F)F)N(C)C(=O)CC(C)(C)C (stereo not drawn) ? 100

Also CCC(Br)C(=O)N(C)C(c1cnccc1C(F)(F)F)C(C)C (stereo not drawn) ? 95

Also CC(C)C(c1cnccc1C(F)(F)F)N(C)C(=O)C(Br)C(C)(C)C (stereo not drawn) ? 95

Also CC(C)C(c1cnccc1C(F)(F)F)N(C)C(=O)Cc1ccccc1F (stereo not drawn) ? 100

Also CC(C)C(c1cnccc1C(F)(F)F)N(C)C(=O)C(F)=Cc1ccccc1 (stereo not drawn) ? 100

Also COCC(=O)N(C)C(c1cnccc1C(F)(F)F)C(C)C (stereo not drawn) ? 60

Also CC(C)C(c1cnccc1C(F)(F)F)N(C)C(=O)CCBr (stereo not drawn) ? 100

###

Exercise: for every item that follows, state its recorded Growth controlling degree (%) Soyabean.
# Tested on: soybean
# test-summary: Test Example 2: soil surface treatment, upland pot test
# Assay type: in vivo, Glycine max Merr.
# conditions: active ingredient 500 g/ha, observed day 21, 0 = non-treated, 100 = complete kill
Your answer should be a plain number; it is taken to be in %.

For the molecule shown here, CC(C)C(c1cnccc1C(F)(F)F)N(C)C(=O)COc1cccc(C(F)(F)F)c1 (stereo not shown) , give the reported Growth controlling degree (%) Soyabean. 10

Also CCC(C)C(c1cnccc1C(F)(F)F)N(C)C(=O)Cc1ccccc1 (stereo not shown) ? 20

Also CC(C)C(c1cnccc1C(F)(F)F)N(C)C(=O)COc1ccc(F)cc1F (stereo not shown) ? 40

Also CCc1ccc(OCC(=O)N(C)C(c2cnccc2C(F)(F)F)C(C)C)cc1 (stereo not shown) ? 20

Also CCC(CC)C(c1cnccc1C(F)(F)F)N(C)C(=O)Cc1ccccc1 (stereo not shown) ? 20

Also CC(C)C(c1cnccc1C(F)(F)F)N(C)C(=O)Cc1cccs1 (stereo not shown) ? 10

Also CC(C)C(c1cnccc1C(F)(F)F)N(C)C(=O)COc1cc(F)ccc1F (stereo not shown) ? 40

###

# Test system: rice
# test-summary: Test Example 2: soil surface treatment, upland pot test
# Format: in vivo, Oryza sativa L.
# conditions: active ingredient 500 g/ha, observed day 21, 0 = non-treated, 100 = complete kill
One threshold, 10%, splits the recorded Growth controlling degree (%) Rice values: lower ones are criterion met, equal or higher ones are criterion not met.

# check: Growth controlling degree (%) Rice < 10% for CCC(CC)C(c1cnccc1C(F)(F)F)N(C)C(=O)Cc1ccccc1 (stereo not drawn) criterion not met

Also CCc1ccc(OCC(=O)N(C)C(c2cnccc2C(F)(F)F)C(C)C)cc1 (stereo not drawn) ? criterion not met

Also CCC(CC)C(c1cnccc1C(F)(F)F)N(C)C(=O)COc1ccccc1 (stereo not drawn) ? criterion not met

Also CC(C)C(c1cnccc1C(F)(F)F)N(C)C(=O)CSc1ccccc1 (stereo not drawn) ? criterion met

Also CC(C)C(c1cnccc1C(F)(F)F)N(C)C(=O)COc1ccc(Br)cc1 (stereo not drawn) ? criterion not met

###

# Test system: redroot pigweed
# test-summary: Test Example 2: soil surface treatment, upland pot test
# Format: in vivo, Amaranthus retroflexus L.
# conditions: active ingredient 250 g/ha, observed 20th to 28th day
measured-attribute: Growth controlling degree (%) Redroot pigweed
Your answer should be a plain number; it is taken to be in %.

For the compound shown here, CC(C)C(c1cnccc1C(F)(F)F)N(C)C(=O)CC(C)(C)C (stereo not drawn) [I-194] , give the reported Growth controlling degree (%) Redroot pigweed. 50

Also CCC(Br)C(=O)N(C)C(c1cnccc1C(F)(F)F)C(C)C (stereo not drawn) [Compound I-202] ? 80

Also CC(C)C(c1cnccc1C(F)(F)F)N(C)C(=O)C(F)(F)F (stereo not drawn) [Compound I-209] ? 60

Also CC(C)C(c1cnccc1C(F)(F)F)N(C)C(=O)CCBr (stereo not drawn) [I-201] ? 70

Also CC(C)C(c1cnccc1C(F)(F)F)N(C)C(=O)C1CC1 (stereo not drawn) [Compound I-204] ? 95

Also CC(C)C(c1cnccc1C(F)(F)F)N(C)S(=O)(=O)c1ccc(Br)cc1 (racemic) [I-136] ? 10

Also CCCCC(=O)N(C)C(c1cnccc1C(F)(F)F)C(C)C (stereo not drawn) [I-199] ? 70

Also CC(C)C(c1cnccc1C(F)(F)F)N(C)C(=O)Cc1ccc(F)cc1 (stereo not drawn) [I-21] ? 90

Also CC(C)=CC(=O)N(C)C(c1cnccc1C(F)(F)F)C(C)C (stereo not drawn) [Compound I-205] ? 80

Also CCCOC(=O)N(C)C(c1cnccc1C(F)(F)F)C(C)C (stereo not drawn) [I-203] ? 80

Also CC(=O)N(C)C(c1cnccc1C(F)(F)F)C(C)C (stereo not drawn) [I-208] ? 90

Also COCC(=O)N(C)C(c1cnccc1C(F)(F)F)C(C)C (stereo not drawn) [I-195] ? 30

###

# Tested on: velvetleaf
# test-summary: Test Example 2: soil surface treatment, upland pot test
# Format: in vivo, Abutilon theophrasti MEDIC.
# conditions: active ingredient 500 g/ha, observed 20th to 28th day
Classify by measured Growth controlling degree (%) Velvetleaf: yes (1) if it is equal to or exceeds 40%, no (0) if it is smaller.

In plain terms: is recorded Growth controlling degree (%) Velvetleaf at least 40% for CC(C)C(c1cnccc1Cl)N(C)C(=O)Cc1ccc(Cl)cc1 (stereo not shown) [I-82] ? no (0)

Also CC(C)C(c1cnccc1C(F)(F)F)N(C)C(=O)CC1CCCC1 (stereo not shown) [I-165] ? yes (1)

Also CC(C)C(c1cnccc1C(F)(F)F)N(C)C(=O)SCc1ccccc1 (racemic) [I-113] ? yes (1)

Also CCN(C(=O)Cc1ccc(C(F)(F)F)cc1)C(c1cnccc1C(F)(F)F)C(C)C (stereo not shown) [Compound I-79] ? yes (1)

Also CC(C)C(c1cnccc1C(F)(F)F)N(C)C(=O)Cc1ccc(F)c(C(F)(F)F)c1 (stereo not shown) [I-61] ? yes (1)

Also CC(C)C(c1cnccc1C(F)(F)F)N(C)C(=O)Cc1cc(C(F)(F)F)ccc1F (stereo not shown) [Compound I-96] ? yes (1)

Also Cc1ccccc1CC(=O)N(C)C(c1cnccc1C(F)(F)F)C(C)C (stereo not shown) [I-36] ? yes (1)

Also CC(C)C(c1cnccc1Cl)N(C)C(=O)Cc1ccc(C(F)(F)F)cc1 (stereo not shown) [I-69] ? no (0)

Also CC=CC(=O)N(C)C(c1cnccc1C(F)(F)F)C(C)C (stereo not shown) [I-180] ? yes (1)

Also CC(C)C(c1cnccc1C(F)(F)F)N(C)C(=O)CCl (stereo not shown) [I-168] ? no (0)

Also CC(C)C(c1cnccc1Cl)N(C)C(=O)Cc1cccc(F)c1F (stereo not shown) [I-72] ? no (0)

Also CC(C)C(c1cnccc1C(F)(F)F)N(C)C(=O)COc1ccccc1 (stereo not shown) [I-229] ? yes (1)

Also CON=Cc1ccc(CC(=O)N(C)C(c2cnccc2C(F)(F)F)C(C)C)cc1 (racemic) [I-122] ? no (0)

Also CC(Oc1ccc(Br)cc1)C(=O)N(C)C(c1cnccc1C(F)(F)F)C(C)C (mixture of isomers) [I-132] ? no (0)

Also CC(C)C(c1cnccc1Cl)N(C)C(=O)COc1ccccc1 (stereo not shown) [Compound I-84] ? no (0)

Also CNC(=S)N(C)C(c1cnccc1C(F)(F)F)C(C)C (racemic) [Compound I-112] ? no (0)

Also Cc1ccc(OC(C)C(=O)N(C)C(c2cnccc2C(F)(F)F)C(C)C)cc1 (mixture of isomers) [I-131] ? no (0)

###

# Tested on: prickly sida
# test-summary: Test Example 1: foliage treatment, upland pot test
# Format: in vivo, Sida spinosa L.
# conditions: active ingredient 500 g/ha, observed 18th to 23rd day, 0 = non-treated, 100 = complete kill
Exercise: for every item that follows, state its recorded Growth controlling degree (%) Prickly sida.
Your answer should be a plain number; it is taken to be in %.

Record lookup: for prickly sida, what Growth controlling degree (%) Prickly sida belongs to CC(C)C(c1cnccc1C(F)(F)F)N(C)C(=O)Cc1ccc(Cl)cc1Cl (centres unmarked) ? 80

Also Cc1ccc(S(=O)(=O)N(C)C(c2cnccc2C(F)(F)F)C(C)C)cc1 (racemic) ? 80

Also CC(C)C(c1cnccc1C(F)(F)F)N(C)C(=O)Cc1ccccc1[N+](=O)[O-] (centres unmarked) ? 90

Also CC(C)C(c1cnccc1C(F)(F)F)N(C)C(=O)CC1CCCCC1 (centres unmarked) ? 80

Also CC(C)C(c1cnccc1C(F)(F)F)N(C)C(=O)Cc1cccc(C(F)(F)F)c1F (centres unmarked) ? 80

Also CC(C)C(c1cnccc1C(F)(F)F)N(C)C(=O)Cc1ccc(Cl)c(Cl)c1 (centres unmarked) ? 70

Also CC(C)C(c1cnccc1C(F)(F)F)N(C)S(=O)(=O)c1ccc(Cl)cc1 (racemic) ? 80

Also CC(Oc1ccc(F)cc1)C(=O)N(C)C(c1cnccc1C(F)(F)F)C(C)C (mixture of isomers) ? 80

Also CC(C)C(c1cnccc1C(F)(F)F)N(C)C(=O)Cc1c(F)cccc1F (centres unmarked) ? 70

Also CC(C(=O)N(C)C(c1cnccc1C(F)(F)F)C(C)C)c1ccccc1 (centres unmarked) ? 60

Also Cc1ccccc1CC(=O)N(C)C(c1cnccc1C(F)(F)F)C(C)C (centres unmarked) ? 90

Also CC(C)C(c1cnccc1C(F)(F)F)N(C)C(=O)Cc1csc2ccccc12 (centres unmarked) ? 90

Also CC(C)C(c1cnccc1C(F)(F)F)N(C)C(=O)Cc1ccc(F)c(C(F)(F)F)c1 (centres unmarked) ? 80

Also CC(C)C(c1cnccc1C(F)(F)F)N(C)C(=O)Cc1cc(F)ccc1F (centres unmarked) ? 80

Also CON=Cc1ccc(CC(=O)N(C)C(c2cnccc2C(F)(F)F)C(C)C)cc1 (racemic) ? 80

Also CC(C)C(c1cnccc1C(F)(F)F)N(C)C(=O)COc1ccccc1 (centres unmarked) ? 80

Also CCC(C)C(c1cnccc1C(F)(F)F)N(C)C(=O)Cc1ccccc1 (centres unmarked) ? 95

Also CCC(C)C(c1cnccc1C(F)(F)F)N(C)C(=O)COc1ccccc1 (centres unmarked) ? 60

Also CC(C)C(c1cnccc1C(F)(F)F)N(C)C(=O)C(Br)C(C)(C)C (centres unmarked) ? 70

Also CC(C)C(c1cnccc1C(F)(F)F)N(C)C(=O)C=Cc1ccc(Br)cc1 (centres unmarked) ? 95

Also CCCC(=O)N(C)C(c1cnccc1C(F)(F)F)C(C)C (centres unmarked) ? 85

Also CC(C)C(c1cnccc1Cl)N(C)C(=O)Cc1ccc(F)cc1 (centres unmarked) ? 80

Also CC(C)C(c1cnccc1C(F)(F)F)N(C)C(=O)Cc1ccc(F)cc1 (centres unmarked) ? 90

Also CC(C)C(c1cnccc1C(F)(F)F)N(C)C(=O)Cc1cccc(C(F)(F)F)c1 (centres unmarked) ? 80

Also CC(C)C(c1cnccc1Cl)N(C)C(=O)Cc1ccccc1F (centres unmarked) ? 60

Also CC(C)C(c1cnccc1C(F)(F)F)N(C)C(=O)CC(C)(C)C (centres unmarked) ? 70

Also CC(C)C(c1cnccc1Cl)N(C)C(=O)Cc1cccc(C(F)(F)F)c1 (centres unmarked) ? 70

Also CC(C)C(c1cnccc1Cl)N(C)C(=O)Cc1ccc(C(F)(F)F)cc1 (centres unmarked) ? 80

Also CC(C)C(c1cnccc1C(F)(F)F)N(C)C(=O)Cc1ccc(C#N)cc1 (racemic) ? 80

Also CC(Oc1ccc(Br)cc1)C(=O)N(C)C(c1cnccc1C(F)(F)F)C(C)C (mixture of isomers) ? 80

Also CCC(=O)N(C)C(c1cnccc1C(F)(F)F)C(C)C (centres unmarked) ? 80

Also CCCCC(=O)N(C)C(c1cnccc1C(F)(F)F)C(C)C (centres unmarked) ? 70

Also CC(C)C(c1cnccc1C(F)(F)F)N(C)S(=O)(=O)c1ccccc1 (centres unmarked) ? 70

Also CC(C)C(c1cnccc1C(F)(F)F)N(C)C(=O)C=Cc1ccc(C(F)(F)F)cc1 (centres unmarked) ? 60

Also CC(C)C(c1cnccc1C(F)(F)F)N(C)C(=O)Cc1ccc(F)c(F)c1 (centres unmarked) ? 70

Also CC(C)C(c1cnccc1C(F)(F)F)N(C)C(=O)Cc1ccc(OC(F)F)cc1 (racemic) ? 80

Also CC(C)C(=O)N(C)C(c1cnccc1C(F)(F)F)C(C)C (centres unmarked) ? 70

Also COc1ccc(C=CC(=O)N(C)C(c2cnccc2C(F)(F)F)C(C)C)cc1 (centres unmarked) ? 70
